Data origin, for the record: ChEMBL document CHEMBL3232893

Assay: Cytotoxicity against human TZM-bl cells after 3 days by XTT assay
Format: cell-based
Bridge positions count the residues as written; N and C are the ends. Square brackets hold non-standard residues; d marks the D form. Peptide text beside a SMILES is read from it. R8 = C=CCCCCCC[C@@](C)(N)C(=O)O; S5 = C=CCCC[C@](C)(N)C(=O)O

Compound: CC[C@H](C)[C@H](NC(C)=O)C(=O)N[C@@H](CO)C(=O)N[C@@H](Cc1ccccc1)C(=O)N[C@@H]1CSCc2ccc(cc2)-c2ccc(cc2)CSC[C@@H](C(=O)N[C@@H](CCC(=O)O)C(=O)N[C@@H](CO)C(=O)NCC(=O)N[C@@H](CO)C(N)=O)NC(=O)[C@H](Cc2ccc(O)cc2)NC(=O)[C@H](Cc2ccc(O)cc2)NC(=O)[C@H](CC(=O)O)NC(=O)[C@H](CC(C)C)NC(=O)[C@H](CC(C)C)NC(=O)[C@H](CCC(=O)O)NC1=O
CC50 at 72 h: > 103 µM

Compound: CC[C@H](C)[C@H](NC(C)=O)C(=O)N[C@@H](CO)C(=O)N[C@@H](Cc1ccccc1)C(=O)N[C@@H]1CSCc2ccc(cc2)-c2ccc(cc2)CSC[C@@H](C(=O)N[C@@H](CCC(=O)O)C(=O)N[C@@H](CO)C(=O)NCC(=O)N[C@@H](CO)C(N)=O)NC(=O)[C@H](C)NC(=O)[C@H](Cc2ccc(O)cc2)NC(=O)[C@H](CC(=O)O)NC(=O)[C@H](CC(C)C)NC(=O)[C@H](CC(C)C)NC(=O)[C@H](CCC(=O)O)NC1=O
CC50 at 72 h: > 107 µM

Compound: CC[C@H](C)[C@H](NC(C)=O)C(=O)N[C@@H](CO)C(=O)N[C@@H](Cc1ccccc1)C(=O)N[C@@H]1CSCc2ccc(cc2)-c2ccc(cc2)CSC[C@@H](C(=O)N[C@@H](CCC(=O)O)C(=O)N[C@@H](CO)C(=O)NCC(=O)N[C@@H](CO)C(N)=O)NC(=O)[C@H](Cc2ccc(O)cc2)NC(=O)[C@H](Cc2ccc(O)cc2)NC(=O)[C@H](CC(=O)O)NC(=O)[C@H](CC(C)C)NC(=O)[C@H](CC(C)C)NC(=O)[C@H](CCC(N)=O)NC1=O
CC50 at 72 h: > 103 µM

Compound: CC[C@H](C)[C@H](N)C(=O)N[C@H](C(=O)N[C@@H](Cc1ccccc1)C(=O)N[C@@H](CCC(=O)O)C(=O)N[C@@H](CC(=O)O)C(=O)N[C@@H](CC(C)C)C(=O)N[C@@H](CC(C)C)C(=O)N[C@@H](CC(=O)O)C(=O)N[C@@H](Cc1ccc(O)cc1)C(=O)N[C@@H](Cc1ccc(O)cc1)C(=O)NCC(=O)N1CCC[C@H]1C(=O)O)[C@@H](C)O (H-ITFEDLLDYYGP-OH)
CC50 at 72 h: > 135 µM

Compound: CC[C@H](C)[C@H](NC(C)=O)C(=O)N[C@@H](CO)C(=O)N[C@@H](Cc1ccccc1)C(=O)N[C@@H]1CSCc2ccc(cc2)-c2ccc(cc2)CSC[C@@H](C(=O)N[C@@H](CCC(=O)O)C(=O)N[C@@H](CO)C(=O)NCC(=O)N[C@@H](CO)C(N)=O)NC(=O)[C@H](Cc2ccc(O)cc2)NC(=O)[C@H](Cc2ccc(O)cc2)NC(=O)[C@H](CC(N)=O)NC(=O)[C@H](CC(C)C)NC(=O)[C@H](CC(C)C)NC(=O)[C@H](CCC(=O)O)NC1=O
CC50 at 72 h: > 102 µM

Compound: CC[C@H](C)[C@H](NC(C)=O)C(=O)N[C@@H](CO)C(=O)N[C@@H](Cc1ccccc1)C(=O)N[C@@H]1CSCc2ccc(cc2)-c2ccc(cc2)CSC[C@@H](C(=O)N[C@@H](CCC(=O)O)C(=O)N[C@@H](CO)C(=O)NCC(=O)N[C@@H](CO)C(N)=O)NC(=O)[C@H](Cc2ccc(O)cc2)NC(=O)[C@H](Cc2ccc(O)cc2)NC(=O)[C@H](CC(N)=O)NC(=O)[C@H](CC(C)C)NC(=O)[C@H](CC(C)C)NC(=O)[C@H](CCC(N)=O)NC1=O
CC50 at 72 h: > 102 µM

Compound: CC[C@H](C)[C@H](NC(C)=O)C(=O)N[C@@H](CO)C(=O)N[C@@H](Cc1ccccc1)C(=O)N[C@@H]1CSCc2ccc(cc2)-c2ccc(cc2)CSC[C@@H](C(=O)N[C@@H](CCC(=O)O)C(=O)N[C@@H](CO)C(=O)NCC(=O)N[C@@H](CO)C(N)=O)NC(=O)[C@H](Cc2ccc(O)cc2)NC(=O)[C@H](Cc2ccc(O)cc2)NC(=O)[C@H](CC(=O)O)NC(=O)[C@H](C)NC(=O)[C@H](CC(C)C)NC(=O)[C@H](CCC(=O)O)NC1=O
CC50 at 72 h: > 52 µM

Compound: CC[C@H](C)[C@H](N)C(=O)N[C@@H](CO)C(=O)N[C@@H](Cc1ccccc1)C(=O)N[C@]1(C)CCCCCC/C=C\CCC[C@@](C)(C(=O)N[C@@H](CCC(=O)O)C(=O)N[C@@H](CO)C(=O)NCC(=O)N[C@@H](CO)C(=O)O)NC(=O)[C@H](Cc2ccc(O)cc2)NC(=O)[C@H](Cc2ccc(O)cc2)NC(=O)[C@H](CC(=O)O)NC(=O)[C@H](CC(C)C)NC(=O)[C@H](CC(C)C)NC(=O)[C@H](CCC(=O)O)NC1=O (H-ISF[R8]ELLDYY[S5]ESGS-OH; staple (Z) 4-11)
CC50 at 72 h: > 189 µM

----------
Test: Cytotoxicity against human MT2 cells after 4 days by XTT assay
Assay type: cell-based
Bridge positions count the residues as written; N and C are the ends. Square brackets hold non-standard residues; d marks the D form. Peptide text beside a SMILES is read from it. R8 = C=CCCCCCC[C@@](C)(N)C(=O)O; S5 = C=CCCC[C@](C)(N)C(=O)O
Metric name: CC50 at 96 h

Compound: CC[C@H](C)[C@H](NC(C)=O)C(=O)N[C@@H](CO)C(=O)N[C@@H](Cc1ccccc1)C(=O)N[C@@H]1CSCc2ccc(cc2)-c2ccc(cc2)CSC[C@@H](C(=O)N[C@@H](CCC(=O)O)C(=O)N[C@@H](CO)C(=O)NCC(=O)N[C@@H](CO)C(N)=O)NC(=O)[C@H](C)NC(=O)[C@H](Cc2ccc(O)cc2)NC(=O)[C@H](CC(=O)O)NC(=O)[C@H](CC(C)C)NC(=O)[C@H](CC(C)C)NC(=O)[C@H](CCC(=O)O)NC1=O
Metric name: CC50 at 96 h
Value reported: > 107 µM
--
Compound: CC[C@H](C)[C@H](NC(C)=O)C(=O)N[C@@H](CO)C(=O)N[C@@H](Cc1ccccc1)C(=O)N[C@@H]1CSCc2ccc(cc2)-c2ccc(cc2)CSC[C@@H](C(=O)N[C@@H](CCC(=O)O)C(=O)N[C@@H](CO)C(=O)NCC(=O)N[C@@H](CO)C(N)=O)NC(=O)[C@H](Cc2ccc(O)cc2)NC(=O)[C@H](Cc2ccc(O)cc2)NC(=O)[C@H](CC(N)=O)NC(=O)[C@H](CC(C)C)NC(=O)[C@H](CC(C)C)NC(=O)[C@H](CCC(=O)O)NC1=O
Metric name: CC50 at 96 h
Value reported: > 102 µM
--
Compound: CC[C@H](C)[C@H](NC(C)=O)C(=O)N[C@@H](CO)C(=O)N[C@@H](Cc1ccccc1)C(=O)N[C@@H]1CSCc2ccc(cc2)-c2ccc(cc2)CSC[C@@H](C(=O)N[C@@H](CCC(=O)O)C(=O)N[C@@H](CO)C(=O)NCC(=O)N[C@@H](CO)C(N)=O)NC(=O)[C@H](Cc2ccc(O)cc2)NC(=O)[C@H](Cc2ccc(O)cc2)NC(=O)[C@H](CC(=O)O)NC(=O)[C@H](C)NC(=O)[C@H](CC(C)C)NC(=O)[C@H](CCC(=O)O)NC1=O
Metric name: CC50 at 96 h
Value reported: 26 µM
--
Compound: CC[C@H](C)[C@H](NC(C)=O)C(=O)N[C@@H](CO)C(=O)N[C@@H](Cc1ccccc1)C(=O)N[C@@H]1CSCc2ccc(cc2)-c2ccc(cc2)CSC[C@@H](C(=O)N[C@@H](CCC(=O)O)C(=O)N[C@@H](CO)C(=O)NCC(=O)N[C@@H](CO)C(N)=O)NC(=O)[C@H](Cc2ccc(O)cc2)NC(=O)[C@H](Cc2ccc(O)cc2)NC(=O)[C@H](CC(=O)O)NC(=O)[C@H](CC(C)C)NC(=O)[C@H](CC(C)C)NC(=O)[C@H](CCC(=O)O)NC1=O
Metric name: CC50 at 96 h
Value reported: > 103 µM
--
Compound: CC[C@H](C)[C@H](N)C(=O)N[C@@H](CO)C(=O)N[C@@H](Cc1ccccc1)C(=O)N[C@]1(C)CCCCCC/C=C\CCC[C@@](C)(C(=O)N[C@@H](CCC(=O)O)C(=O)N[C@@H](CO)C(=O)NCC(=O)N[C@@H](CO)C(=O)O)NC(=O)[C@H](Cc2ccc(O)cc2)NC(=O)[C@H](Cc2ccc(O)cc2)NC(=O)[C@H](CC(=O)O)NC(=O)[C@H](CC(C)C)NC(=O)[C@H](CC(C)C)NC(=O)[C@H](CCC(=O)O)NC1=O (H-ISF[R8]ELLDYY[S5]ESGS-OH; staple (Z) 4-11)
Metric name: CC50 at 96 h
Value reported: > 189 µM
--
Compound: CC[C@H](C)[C@H](NC(C)=O)C(=O)N[C@@H](CO)C(=O)N[C@@H](Cc1ccccc1)C(=O)N[C@@H]1CSCc2ccc(cc2)-c2ccc(cc2)CSC[C@@H](C(=O)N[C@@H](CCC(=O)O)C(=O)N[C@@H](CO)C(=O)NCC(=O)N[C@@H](CO)C(N)=O)NC(=O)[C@H](Cc2ccc(O)cc2)NC(=O)[C@H](Cc2ccc(O)cc2)NC(=O)[C@H](CC(=O)O)NC(=O)[C@H](CC(C)C)NC(=O)[C@H](CC(C)C)NC(=O)[C@H](CCC(N)=O)NC1=O
Metric name: CC50 at 96 h
Value reported: > 103 µM
--
Compound: CC[C@H](C)[C@H](NC(C)=O)C(=O)N[C@@H](CO)C(=O)N[C@@H](Cc1ccccc1)C(=O)N[C@@H]1CSCc2ccc(cc2)-c2ccc(cc2)CSC[C@@H](C(=O)N[C@@H](CCC(=O)O)C(=O)N[C@@H](CO)C(=O)NCC(=O)N[C@@H](CO)C(N)=O)NC(=O)[C@H](Cc2ccc(O)cc2)NC(=O)[C@H](Cc2ccc(O)cc2)NC(=O)[C@H](CC(N)=O)NC(=O)[C@H](CC(C)C)NC(=O)[C@H](CC(C)C)NC(=O)[C@H](CCC(N)=O)NC1=O
Metric name: CC50 at 96 h
Value reported: 51 µM
--
Compound: CC[C@H](C)[C@H](N)C(=O)N[C@H](C(=O)N[C@@H](Cc1ccccc1)C(=O)N[C@@H](CCC(=O)O)C(=O)N[C@@H](CC(=O)O)C(=O)N[C@@H](CC(C)C)C(=O)N[C@@H](CC(C)C)C(=O)N[C@@H](CC(=O)O)C(=O)N[C@@H](Cc1ccc(O)cc1)C(=O)N[C@@H](Cc1ccc(O)cc1)C(=O)NCC(=O)N1CCC[C@H]1C(=O)O)[C@@H](C)O (H-ITFEDLLDYYGP-OH)
Metric name: CC50 at 96 h
Value reported: > 135 µM
